Origin of the recorded values: patent US8609836B2

- Test system: A2780
- protocol-summary: Cellular proliferation assay (Alamar blue), A2780
- Assay type: cell-based
- condition-summary: Homo sapiens, 10% FCS, 72 hours with compound, Alamar blue 24 h, read-out: A2780 (cellular proliferation assay, Table 4) (converted)
Please respond with reported IC50 for every item in the list.
Give bare numbers, in µM.

• CN1CCC(NC(=O)c2cc3cc(c2)Nc2nccc(n2)-c2cccc(c2)CNC(=O)[C@@H]2CCCN2C3)CC1 [Compound 38] = 2.69
• C[C@@H]1NCCc2cccc(c2)-c2ccnc(n2)Nc2ccc(N3CCOCC3)c(c2)CNC1=O [Compound 100] = 3.02
• COc1ccc2cc1CN(C)CCNC(=O)CN1CCN(CC1)Cc1cc(NCCc3ccccc3)cc(c1)Nc1nccc-2n1 [Compound 138] = 5.5

Kindly give each listed record's IC50.
1. O=C1CN2CCN(CC2)Cc2cc(ccc2N2CCOCC2)Nc2nccc(n2)-c2cccc(c2)OCCN1 [Compound 102]
2. O=C(NC1CCOCC1)c1ccc2cc1CN1CCC[C@H]1C(=O)NCc1cccc(c1)-c1ccnc(n1)N2 [Compound 46]
3. O=C1NCc2cccc(c2)-c2ccnc(n2)Nc2cc(CNC3CCOCC3)cc(c2)CN2CCC[C@@H]12 [Compound 29]

1. 6.46
2. 5.5
3. 0.708

###

Hi there, I'd appreciate the recorded IC50 for every entry that follows.
- Test system: HCT-116
- protocol-summary: Cellular proliferation assay (Alamar blue), HCT-116
- Assay type: cell-based
- condition-summary: Homo sapiens, 10% FCS, 72 hours with compound, Alamar blue 4 h

Would you please look over these solved cases?
• O=C(NC1CCOCC1)c1cc2cc(c1)Nc1nccc(n1)-c1cccc(c1)CNC(=O)[C@@H]1CCCN1C2 = > 10 µM
• O=C1NCCCOc2cccc(c2)-c2ccnc(n2)Nc2ccc(N3CCOCC3)c(c2)CN2CCC1CC2 = 3.63 µM
• COc1ccc2cc1CN(C)CCNC(=O)C1CCN(CC1)Cc1cccc(c1)Nc1nccc-2n1 = > 10 µM

Give IC50 for all molecules that follow.
1. O=C1NCc2cccc(c2)-c2ccnc(n2)Nc2cc(ccc2Cl)CN2CCC[C@@H]12
2. CN1CCNC(=O)C2CCN(CC2)Cc2cc(Br)cc(c2)Nc2nccc(n2)-c2ccc(cc2)C1
3. CC(C)Nc1cc2cc(c1)Nc1nccc(n1)-c1ccc(cc1)CN(C)CCNC(=O)C1CCN(CC1)C2
4. CN1CCNC(=O)[C@H](CO)NCc2cc(Br)cc(c2)Nc2nccc(n2)-c2ccc(cc2)C1

1. > 10 µM
2. 1.58 µM
3. 7.94 µM
4. 1.91 µM

For every listed record, write down its IC50.
1. COc1cc2cc(c1)Nc1nccc(n1)-c1ccc(OC)c(c1)CN(C)CCNC(=O)[C@H](CO)NC2
2. O=C1CN2CCN(CC2)Cc2cc(ccc2N2CCOCC2)Nc2nccc(n2)-c2ccc(cc2)CNCCN1
3. COc1ccc2cc1CN(C)CCCNC(=O)[C@@H]1CCCN1Cc1cc(Br)cc(c1)Nc1nccc-2n1
4. COc1ccc2cc1CN(C)CCCNC(=O)C1CCN(CC1)Cc1cc(cc(NC(C)C)c1)Nc1nccc-2n1
5. COCCNC(=O)c1cc2cc(c1)Nc1nccc(n1)-c1cccc(c1)CNC(=O)[C@@H]1CCCN1C2
6. COc1ccc2cc1CNCCCNC(=O)[C@@H]1C[C@@H](O)CN1Cc1cc(ccc1N1CCOCC1)Nc1nccc-2n1

4.37 µM
> 10 µM
> 10 µM
> 10 µM
1.82 µM
> 10 µM

For the 2 molecules below, give their IC50 values.
1. CN1CCCNC(=O)[C@H](CO)NCc2cccc(c2)Nc2nccc(n2)-c2ccc(cc2)C1
2. O=C1NCCNc2cc(ccn2)-c2ccnc(n2)Nc2ccc(N3CCOCC3)c(c2)CN2CCCC12 (stereo not drawn)

> 10 µM
4.68 µM
